Cited source: patent US20260109732A1

# Average Relative Light Units ± Standard Deviation per entry
System: HeLa cells
Assay: Luciferase Protein Expression Assay in HeLa Cells
Format: cell-based, Human
Conditions: LNPs encapsulating Luciferase mRNA, 25 ng per well, N=4 wells; 5 h serum-free then 24 h; ONE-Glo
Structures can show the parent of a compound that is named as a salt.
Express your answer in Relative Light Units, writing the number without its unit.

CC[C@H](CC[C@@H](C)[C@H]1CC[C@H]2[C@@H]3CC=C4C[C@@H](OC(=O)N(CCCCNCCC(C)(C)N)CCC(C)(C)N)CC[C@]4(C)[C@H]3CC[C@]12C)C(C)C [SA114, trihydrochloride]; 22594.3

Next up:
Request: Please look up its Average Relative Light Units ± Standard Deviation: CC[C@H](CC[C@@H](C)[C@H]1CC[C@H]2[C@@H]3CC=C4C[C@@H](SSCCC(=O)N(CCCCCCCC(C)N)CCC(C)N)CC[C@]4(C)[C@H]3CC[C@]12C)C(C)C (some centres unmarked) [SA178, dihydrochloride]
Response: 10196.5
